molecular target: Cytochrome P450 2D6 (Homo sapiens, UniProt P10635); experiment: Inhibition of CYP2D6 (unknown origin); assay type: ADME, microsomes, Liver, Microsome
Sequence (P10635 whole entry): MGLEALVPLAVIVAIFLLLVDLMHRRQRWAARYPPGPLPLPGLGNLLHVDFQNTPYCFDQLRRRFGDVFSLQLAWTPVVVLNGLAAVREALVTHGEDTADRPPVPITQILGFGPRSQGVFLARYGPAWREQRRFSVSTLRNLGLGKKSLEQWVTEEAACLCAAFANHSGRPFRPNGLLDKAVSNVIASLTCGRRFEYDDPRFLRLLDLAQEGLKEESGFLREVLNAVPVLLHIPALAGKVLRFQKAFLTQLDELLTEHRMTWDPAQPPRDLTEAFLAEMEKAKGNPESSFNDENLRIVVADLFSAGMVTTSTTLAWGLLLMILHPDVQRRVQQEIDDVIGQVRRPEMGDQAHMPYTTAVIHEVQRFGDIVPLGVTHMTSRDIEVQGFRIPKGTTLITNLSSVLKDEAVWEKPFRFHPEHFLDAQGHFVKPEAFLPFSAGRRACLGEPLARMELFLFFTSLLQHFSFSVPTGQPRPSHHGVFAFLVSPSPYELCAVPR
pIC50: −log10 of the molar value.
PROPERTY: pIC50

Per the record, `O=C(c1ccc(S(=O)(=O)Nc2ccccc2)cc1)N(Cc1ccc(NCCO)cc1)CC1CC1` has pIC50 of < 4.60

----------
experiment: Drug concentration in plasma of CD-1 mouse at 30 mg/kg/day, ip treated daily for 28 days; format: ADME, organism-based; details: time 28 day
PROPERTY: concentration at 672 h

Per the record, `O=C(c1ccc(S(=O)(=O)Nc2ccccc2)cc1)N(Cc1ccc(NCCO)cc1)CC1CC1` has concentration at 672 h of 0.903 µM

----------
assay: Drug concentration in brain of CD-1 mouse at 30 mg/kg/day, ip treated daily for 28 days; format: ADME, organism-based; details: time 28 day, read-out: Ct
PROPERTY: concentration at 672 h (nM)
Response body: numeric value in nM, unit text excluded.

Per the record, `O=C(c1ccc(S(=O)(=O)Nc2ccccc2)cc1)N(Cc1ccc(NCCO)cc1)CC1CC1` has concentration at 672 h of 62

----------
target: Cytochrome P450 1A2 (Homo sapiens, UniProt P05177)
Sequence (P05177 whole entry): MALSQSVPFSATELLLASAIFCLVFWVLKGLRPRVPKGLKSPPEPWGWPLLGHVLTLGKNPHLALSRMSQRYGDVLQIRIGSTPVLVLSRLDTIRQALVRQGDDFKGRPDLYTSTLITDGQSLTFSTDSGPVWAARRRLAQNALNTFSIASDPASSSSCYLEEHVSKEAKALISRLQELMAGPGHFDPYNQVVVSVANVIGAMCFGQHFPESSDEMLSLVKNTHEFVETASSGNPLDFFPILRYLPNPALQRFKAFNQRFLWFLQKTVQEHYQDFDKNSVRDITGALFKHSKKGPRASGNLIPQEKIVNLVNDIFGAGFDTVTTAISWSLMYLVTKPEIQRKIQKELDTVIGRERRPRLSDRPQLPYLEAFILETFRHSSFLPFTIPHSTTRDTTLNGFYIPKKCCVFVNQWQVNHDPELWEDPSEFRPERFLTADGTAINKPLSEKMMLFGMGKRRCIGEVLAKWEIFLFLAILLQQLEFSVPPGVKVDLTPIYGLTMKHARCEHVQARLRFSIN
pIC50: −log10 of the molar value.
PROPERTY: pIC50

I looked up `O=C(c1ccc(S(=O)(=O)Nc2ccccc2)cc1)N(Cc1ccc(NCCO)cc1)CC1CC1` and its pIC50 for Cytochrome P450 1A2 (Homo sapiens, UniProt P05177) was < 4.60
